// values below are reported cell viability
System: UCD52 (cells of a triple-negative basal-like breast cancer xenograft);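 note: PDX cells carrying CMV promoter-driven luciferase, viability read as total photon flux per second by IVIS imaging following D-luciferin, vehicle control 0.1% DMSO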
assay.procedure: cell viability (% of vehicle); higher = less cytotoxic
stated.conditions: 10 µM; 72 h

compound: COc1ccccc1Oc1c(NS(=O)(=O)c2ccc(C(C)(C)C)cc2)nc(-c2ncccn2)nc1OCCO [Bosentan]
cell viability: 111
//
compound: CC(C)n1c(C=CC(O)CC(O)CC(=O)[O-])c(-c2ccc(F)cc2)c2ccccc21.[Na+] (stereo not given) [Fluvastatin Sodium]
cell viability: 54.9
//
compound: O=C(O)c1cc(=O)[nH]c(=O)[nH]1 [Orotic acid]
cell viability: 93.6
//
compound: CC(=O)OC1CC2CCC3C(CCC4(C)C3CC([N+]3(C)CCCCC3)C4OC(C)=O)C2(C)CC1N1CCCCC1.[Br-] (stereo not given) [Vecuronium Bromide]
cell viability: 87.7
//
compound: CCOC(=O)C(CCc1ccccc1)NC(C)C(=O)N1C(=O)N(C)CC1C(=O)O.Cl (stereo not given) [Imidapril HCl]
cell viability: 78
//
compound: Nc1nc(F)nc2c1ncn2C1OC(COP(=O)(O)O)C(O)C1O (stereo not given) [Fludarabine Phosphate (Fludara)]
cell viability: 98.2
//
compound: CO[C@H]1C(=O)[C@]2(C)[C@@H](OC)C[C@H]3OC[C@@]3(OC(C)=O)[C@H]2[C@H](OC(=O)c2ccccc2)[C@]2(O)C[C@H](OC(=O)[C@H](O)[C@@H](NC(=O)OC(C)(C)C)c3ccccc3)C(C)=C1C2(C)C [Cabazitaxel]
cell viability: 70.3
//
compound: CCC1OC(=O)CC(O)C(C)C(OC2OC(C)C(OC3CC(C)(O)C(O)C(C)O3)C(N(C)C)C2O)C(CC=O)CC(C)C(=O)C=CC(C)=CC1COC1OC(C)C(O)C(OC)C1OC.O=C(O)C(O)C(O)C(=O)O (stereo not given) [Tylosin tartrate]
cell viability: 85.2
//
compound: COc1ccc2c(c1)c(CC(=O)O)c(C)n2C(=O)c1ccc(Cl)cc1 [Indomethacin]
cell viability: 72.4
//
compound: COc1ccc2c(c1)c(CC(=O)OCC(=O)O)c(C)n2C(=O)c1ccc(Cl)cc1 [Acemetacin]
cell viability: 78.2
//
compound: CC(=O)Oc1ccccc1C(=O)O [Aspirin (Acetylsalicylic acid)]
cell viability: 142
//
compound: CN1CCN(CCCN2c3ccccc3Sc3ccc(Cl)cc32)CC1 [Prochlorperazine]
cell viability: 63.7
//
compound: CC(CCC(=O)O)C1CCC2C3C(O)CC4CC(O)CCC4(C)C3CCC12C (stereo not given) [Ursodiol]
cell viability: 89.8
//
compound: S=C(NCc1ccc2c(c1)OCO2)N1CCN(c2ncnc3c2oc2ccccc23)CC1 [Amuvatinib (MP-470, HPK 56)]
cell viability: 73
//
compound: CC(Cc1ccc(O)c(O)c1)(NN)C(=O)O (stereo not given) [Carbidopa]
cell viability: 124
//
compound: CC(OC1OCCN(Cc2nc(=O)[nH][nH]2)C1c1ccc(F)cc1)c1cc(C(F)(F)F)cc(C(F)(F)F)c1 (stereo not given) [Aprepitant]
cell viability: 75.3
//
compound: CNNCc1ccc(C(=O)NC(C)C)cc1.Cl [Procarbazine HCl]
cell viability: 79.7
//
compound: CC(NCCCc1cccc(C(F)(F)F)c1)c1cccc2ccccc12.Cl (stereo not given) [Cinacalcet HCl]
cell viability: 29.6
//
compound: CC1CCc2c(N3CCC(O)CC3)c(F)cc3c(=O)c(C(=O)O)cn1c23 (stereo not given) [Nadifloxacin]
cell viability: 77.6
//
compound: CC(C)C1C(=O)NC(CCCN=C(N)N)C(=O)NCC(=O)NC(CC(=O)O)C(=O)NC(Cc2ccccc2)C(=O)N1C (stereo not given) [Cilengitide]
cell viability: 84.4
//
compound: O=c1c(-c2ccc(O)cc2)coc2cc(O)ccc12 [Daidzein]
cell viability: 149
//
compound: O=C(Nc1ccccc1)c1ccccc1O [Salicylanilide]
cell viability: 123
//
compound: CCN(CC)C(=O)C1(c2ccccc2)CC1CN.Cl (stereo not given) [Milnacipran HCl]
cell viability: 86.4
//
compound: Nc1nc(CC(=O)Nc2ccc(CCNCC(O)c3ccccc3)cc2)cs1 (stereo not given) [Mirabegron (YM178)]
cell viability: 82.2
//
compound: O=c1c(-c2ccc(O)cc2)coc2cc(O)cc(O)c12 [Genistein]
cell viability: 189
//
compound: COc1ccc(C=CC(=O)Nc2ccccc2C(=O)O)cc1OC [Tranilast]
cell viability: 116
//
compound: CCOC(=O)n1ccn(C)c1=S [Carbimazole]
cell viability: 95.5
//
compound: Cc1cnc(C(=O)O)c[n+]1[O-] [Acipimox]
cell viability: 79.6
//
compound: Cc1c(C(=O)NN2CCCCC2)nn(-c2ccc(Cl)cc2Cl)c1-c1ccc(Cl)cc1 [Rimonabant]
cell viability: 62.3
//
compound: C=C1CCN(C(C)C(O)(Cn2cncn2)c2ccc(F)cc2F)CC1 (stereo not given) [Efinaconazole]
cell viability: 85.4
